Data credit: the supplement of paper PMC10567573

B1: P2RY14 (parent)
chain: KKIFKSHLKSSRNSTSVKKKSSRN

- Variants of: B1
- RUN DESCRIPTION: protein stability index of a GFP-peptide fusion (GPS, HEK-293T) (PSI 1-6); higher = more stable;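 further: lentivirally expressed fusions sorted by FACS into six bins by GFP to DsRed ratio, PSI derived from sequencing read proportions per bin multiplied by bin number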
- CONDITIONS: c terminus: a fixed tail appended
Property: protein stability index; scope: individual variants
Reply: number alone, nothing else.

   alteration                  readout  reported_value
0         K5G  protein stability index            4.44

Asked: Respond only with protein stability index recorded for `S16T`
Given back: 4.22

Asked: Read the entry `V17K` and write its reported protein stability index.
Given back: 4.02

Asked: State its protein stability index for this variant: `S21R`
Given back: 4.27

Asked: # return recorded protein stability index for entry `K18F`
Given back: 3.54

Asked: Provide protein stability index value for the following variant: `R12Q`
Given back: 4.16

Asked: Check the records and state protein stability index for `V17D`
Given back: 4.25
